Reference source for all entries: patent US20240209076A1

# measuredTarget: T1, recombinant human IL-6 (human, UniProt P05231 30-212)
# T1 construct: Flowed in solution over the captured antibodies
# T1 sequence (P05231 30-212 limits assumed): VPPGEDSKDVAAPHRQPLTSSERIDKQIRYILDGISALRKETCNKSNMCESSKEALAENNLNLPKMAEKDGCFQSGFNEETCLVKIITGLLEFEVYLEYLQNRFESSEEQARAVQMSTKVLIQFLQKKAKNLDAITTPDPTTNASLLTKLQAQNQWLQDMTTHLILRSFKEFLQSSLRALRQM
# assaySummary: SPR (Biacore), supernatant IgG on Protein A, 25 C
measurementType: Kd (nM)
Enter your answer as a number in nM; do not include the unit.

Study these solved cases before continuing.
anti-IL-6 antibody, heavy chain S30Y, light chain WT (antibody, IgG1, V domains shown, Full IgG1 tested; V domains derived as in m2) VH: EVQLVESGGGLVQPGGSLRLSCAASGFTFYPFAMSWVRQAPGKGLEWVAKISPGGSWTYYSDTVTGRFTFSLDTSKSTAYLQMNSLRAEDTAVYYCARQLWGYYALDIWGQGTLVTVSS VL: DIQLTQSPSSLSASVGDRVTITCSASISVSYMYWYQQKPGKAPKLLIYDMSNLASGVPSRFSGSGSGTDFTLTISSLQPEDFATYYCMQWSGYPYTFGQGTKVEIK ... 0.334
anti-IL-6 antibody, heavy chain F29Y, light chain WT (antibody, IgG1, V domains shown, Full IgG1 tested; V domains derived as in m2) VH: EVQLVESGGGLVQPGGSLRLSCAASGFTYSPFAMSWVRQAPGKGLEWVAKISPGGSWTYYSDTVTGRFTFSLDTSKSTAYLQMNSLRAEDTAVYYCARQLWGYYALDIWGQGTLVTVSS VL: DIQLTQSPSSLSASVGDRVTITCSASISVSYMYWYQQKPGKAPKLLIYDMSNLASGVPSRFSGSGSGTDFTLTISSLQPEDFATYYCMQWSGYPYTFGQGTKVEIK ... 0.266
anti-IL-6 antibody, heavy chain T28Y, light chain WT (antibody, IgG1, V domains shown, Full IgG1 tested; V domains derived as in m2) VH: EVQLVESGGGLVQPGGSLRLSCAASGFYFSPFAMSWVRQAPGKGLEWVAKISPGGSWTYYSDTVTGRFTFSLDTSKSTAYLQMNSLRAEDTAVYYCARQLWGYYALDIWGQGTLVTVSS VL: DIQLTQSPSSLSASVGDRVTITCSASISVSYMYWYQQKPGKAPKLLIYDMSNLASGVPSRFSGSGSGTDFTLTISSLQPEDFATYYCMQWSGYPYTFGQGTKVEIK ... 0.412

For the binder anti-IL-6 antibody, heavy chain D62Q, light chain WT (antibody, IgG1, V domains shown, Full IgG1 tested; V domains derived as in m2) VH: EVQLVESGGGLVQPGGSLRLSCAASGFTFSPFAMSWVRQAPGKGLEWVAKISPGGSWTYYSQTVTGRFTFSLDTSKSTAYLQMNSLRAEDTAVYYCARQLWGYYALDIWGQGTLVTVSS VL: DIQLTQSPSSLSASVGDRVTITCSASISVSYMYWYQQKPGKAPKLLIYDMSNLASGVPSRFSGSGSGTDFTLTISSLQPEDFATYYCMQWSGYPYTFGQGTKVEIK , what Kd is on record?
0.366

Consider the binder shown here: anti-IL-6 antibody, heavy chain WT, light chain S24P (antibody, IgG1, V domains shown, Full IgG1 tested; V domains derived as in m2) VH: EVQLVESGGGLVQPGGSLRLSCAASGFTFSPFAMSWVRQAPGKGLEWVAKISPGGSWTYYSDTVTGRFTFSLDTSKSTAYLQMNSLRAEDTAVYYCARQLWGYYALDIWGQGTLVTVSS VL: DIQLTQSPSSLSASVGDRVTITCPASISVSYMYWYQQKPGKAPKLLIYDMSNLASGVPSRFSGSGSGTDFTLTISSLQPEDFATYYCMQWSGYPYTFGQGTKVEIK What is its recorded Kd?
0.00551
